Quick list: melting point per entry.

Query: Which melting point value is on record for C[Si](C)(C)OC1(C#N)CCC(C(=O)NCc2cccc3ccccc23)c2ccccc21 (stereo not given) ?
Result: 55 to 56 °C

Query: Consider the compound "Cc1ccccc1C(=O)Nc1ccc(C(=O)N2Cc3cccn3Cc3ccccc32)cc1Cl" and give its measured melting point.
Result: 176 to 178 °C

----------
Each entry below carries its recorded melting point.

Some solved cases for reference:
{"molecule": "Cc1c(C)c2c(c(C)c1OCc1ccccc1)C(=O)C(C)(C)O2", "melting point": "114 to 115 °C"}
{"molecule": "CNC(Cc1ccccc1NC(=O)C(C)(C)C)c1ccccc1 (stereo unspecified)", "melting point": "85 to 86 °C"}
{"molecule": "COc1ccc2c(c1)CCc1c-2n(-c2ccc(O[Si](C)(C)C(C)(C)C)cc2)c(=O)c2cc(OC)ccc12", "melting point": "194 to 195 °C"}

// moving on: another record for melting point
Query: Give the measured melting point of "CC(C)(O)Cc1cc(O)ccc1Br" .
Result: 139 to 141 °C

Numbers sourced from a melting point compilation (Tetko et al.; mined from patent text by program, amines drawn as free bases though some values may be those of a salt).
